# assayedSystem: Sphingosine 1-phosphate receptor 3 (Homo sapiens, UniProt Q99500)
# Sequence (Q99500 whole entry): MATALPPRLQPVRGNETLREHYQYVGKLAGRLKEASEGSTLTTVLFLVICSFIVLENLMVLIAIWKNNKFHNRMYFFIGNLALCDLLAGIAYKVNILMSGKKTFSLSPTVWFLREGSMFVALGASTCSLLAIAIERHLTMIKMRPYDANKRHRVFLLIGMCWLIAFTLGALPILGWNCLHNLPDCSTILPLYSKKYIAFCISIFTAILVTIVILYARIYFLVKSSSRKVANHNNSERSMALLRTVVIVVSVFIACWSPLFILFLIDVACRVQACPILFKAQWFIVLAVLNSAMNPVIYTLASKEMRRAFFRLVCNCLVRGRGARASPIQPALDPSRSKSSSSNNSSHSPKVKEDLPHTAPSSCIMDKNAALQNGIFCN
# measurementDescription: Agonist activity at human recombinant S1PR3 expressed in CHO cell membranes assessed as [35S]GTPgammaS binding preincubated for 30 mins followed by [35S]GTPgammaS addition measured after 1 hr by topcount analysis
pEC50: −log10 of the molar value.
Entry flag: Satisfied if pEC50 reaches 6; Not satisfied if it does not.

compoundStructure | assayedSystem | group
CCc1cc(-c2noc(-c3ccc(CN(C)CC)s3)n2)cc(C)c1OC[C@@H](O)CNC(=O)CO | Sphingosine 1-phosphate receptor 3 (Homo sapiens, UniProt Q99500) | Not satisfied
CCCN(C)Cc1cc(-c2nc(-c3cc(C)c(OC[C@@H](O)CNC(=O)CO)c(CC)c3)no2)ccc1C | Sphingosine 1-phosphate receptor 3 (Homo sapiens, UniProt Q99500) | Not satisfied
CCc1cc(-c2noc(-c3ccc(CN(C)CC(C)C)c(C)c3)n2)cc(C)c1OC[C@@H](O)CNC(=O)CO | Sphingosine 1-phosphate receptor 3 (Homo sapiens, UniProt Q99500) | Satisfied
CCc1cc(-c2noc(-c3cc(C)nc(CN(C)CC(C)C)c3)n2)cc(C)c1OC[C@@H](O)CNC(=O)CO | Sphingosine 1-phosphate receptor 3 (Homo sapiens, UniProt Q99500) | Satisfied
CCCN(C)Cc1cc(C)cc(-c2nc(-c3cc(C)c(OC[C@@H](O)CNC(=O)CO)c(CC)c3)no2)c1 | Sphingosine 1-phosphate receptor 3 (Homo sapiens, UniProt Q99500) | Satisfied
CCc1cc(-c2noc(-c3ccc(CN(C)C)s3)n2)cc(C)c1OC[C@@H](O)CNC(=O)CO | Sphingosine 1-phosphate receptor 3 (Homo sapiens, UniProt Q99500) | Not satisfied
